Recorded Ki, one value per entry.
molecular target: Xanthine dehydrogenase/oxidase (Bos taurus, UniProt P80457); experiment: Mixed-type inhibition of bovine milk xanthine oxidase assessed as enzyme-inhibitor complex using varying levels of xanthine as substrate by Line-weaver burk plot analysis
Sequence (P80457 whole entry): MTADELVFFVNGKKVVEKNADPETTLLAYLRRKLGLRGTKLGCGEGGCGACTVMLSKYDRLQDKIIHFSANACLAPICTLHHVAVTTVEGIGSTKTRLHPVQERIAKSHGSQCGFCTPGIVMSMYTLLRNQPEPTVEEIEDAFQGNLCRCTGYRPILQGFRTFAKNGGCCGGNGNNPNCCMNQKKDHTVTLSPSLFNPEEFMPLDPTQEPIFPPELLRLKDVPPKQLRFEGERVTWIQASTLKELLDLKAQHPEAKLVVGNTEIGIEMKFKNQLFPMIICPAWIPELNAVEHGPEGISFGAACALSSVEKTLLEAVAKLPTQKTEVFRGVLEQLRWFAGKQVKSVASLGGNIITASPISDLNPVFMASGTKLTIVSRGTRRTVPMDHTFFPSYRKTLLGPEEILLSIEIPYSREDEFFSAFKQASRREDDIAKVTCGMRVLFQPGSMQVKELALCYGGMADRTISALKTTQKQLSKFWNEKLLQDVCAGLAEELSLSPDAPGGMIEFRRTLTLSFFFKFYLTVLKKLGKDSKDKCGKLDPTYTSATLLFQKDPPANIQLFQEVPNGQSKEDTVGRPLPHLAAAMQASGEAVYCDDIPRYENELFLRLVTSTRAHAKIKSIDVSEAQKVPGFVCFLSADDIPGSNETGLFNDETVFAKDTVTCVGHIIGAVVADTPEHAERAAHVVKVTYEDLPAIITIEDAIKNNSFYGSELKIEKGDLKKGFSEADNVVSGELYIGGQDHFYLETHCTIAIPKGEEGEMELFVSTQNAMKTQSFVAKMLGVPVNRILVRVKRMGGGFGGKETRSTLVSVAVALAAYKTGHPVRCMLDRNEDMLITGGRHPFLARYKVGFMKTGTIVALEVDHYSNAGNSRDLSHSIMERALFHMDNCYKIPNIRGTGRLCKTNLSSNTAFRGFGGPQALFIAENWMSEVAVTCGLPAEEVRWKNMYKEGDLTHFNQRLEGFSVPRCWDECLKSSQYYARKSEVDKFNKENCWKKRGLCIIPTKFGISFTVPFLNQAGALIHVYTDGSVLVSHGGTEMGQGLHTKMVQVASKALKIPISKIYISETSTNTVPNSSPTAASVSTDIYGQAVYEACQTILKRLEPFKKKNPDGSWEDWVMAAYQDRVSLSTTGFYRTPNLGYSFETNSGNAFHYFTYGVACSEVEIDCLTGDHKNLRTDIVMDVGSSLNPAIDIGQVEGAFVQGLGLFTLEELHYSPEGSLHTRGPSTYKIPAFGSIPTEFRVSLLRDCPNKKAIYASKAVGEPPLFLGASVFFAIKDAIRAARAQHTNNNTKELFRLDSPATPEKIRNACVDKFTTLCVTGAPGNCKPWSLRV
# value in nM; strip the unit string

C=C(C)COc1ccc2c(c1)O/C(=C\c1ccc(C(=O)O)cc1)C2=O : 128

Note to self: Ki recorded for COc1ccc(/C=C2\Oc3cc(OCC(=O)O)ccc3C2=O)c(OC)c1 was 2.9

====

biological target: Xanthine dehydrogenase/oxidase (Bos taurus, UniProt P80457)
measured-quantity: log10(IC50) (log10 of the value in nM)
In plain terms, each number is the log10 of measured IC50 in nM.

Previously resolved entries follow.
O=C(O)c1ccc(/C=C2\Oc3cc(OCc4cccc5ccccc45)ccc3C2=O)cc1 : 1.84
O=C(O)COc1ccc2c(c1)O/C(=C\c1ccccc1Cl)C2=O : 3.09
O=C(O)COc1ccc2c(c1)O/C(=C\c1ccccc1)C2=O : 3.65

Note to self: log10(IC50) recorded for COc1ccc2c(c1)O/C(=C\c1ccc(C(=O)O)cc1)C2=O was 1.90

Note to self: log10(IC50) recorded for O=C(O)c1ccc(/C=C2\Oc3cc(OCc4ccccc4)ccc3C2=O)cc1 was 1.79

Note to self: log10(IC50) recorded for O=C(O)COc1ccc2c(c1)O/C(=C\c1ccc(C(=O)O)cc1)C2=O was 2.18

Note to self: log10(IC50) recorded for COc1ccccc1/C=C1\Oc2cc(OCC(=O)O)ccc2C1=O was 3.11
